ASSAY COMMENT: recombinant barcode read abundance after kanamycin selection (control-corrected) (log10(CPM+1)); higher = more efficient recombination; sequences stand for … in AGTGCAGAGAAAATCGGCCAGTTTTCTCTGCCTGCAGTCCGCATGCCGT…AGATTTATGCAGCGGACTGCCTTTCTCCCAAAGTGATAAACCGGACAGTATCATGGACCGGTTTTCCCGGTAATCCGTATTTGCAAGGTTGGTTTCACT; site = the 11-nt target;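 also: IS621 recombinase and bridge RNA in Escherichia coli cells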
MEASUREMENT KIND: recombinant barcode read abundance (log10)
Answers are plain numbers.

[[record]]
monomer_sequence = "TAGAAGACTTGGGTTCTAACCTGTTGCTC (site TAGAAGACTTA)"
recorded_value = 0.0266

[[record]]
monomer_sequence = "ATAGACCCTTGGGTTCTAACCTGTTGCCT (site TTAGACCCTAG)"
recorded_value = 1.49

[[record]]
monomer_sequence = "TACCCGACTTGGGTTCTAACCTGTTGCCT (site TACCTGACTAG)"
recorded_value = 0.00741

[[record]]
monomer_sequence = "CTCGCCACTTGGGTTCTAACCTGTTGCCT (site CTCGCCACTAG)"
recorded_value = 0.186

[[record]]
monomer_sequence = "CGAGCTCCTTGGGTTCTAACCTGTTGCAT (site CGAGCTCCTAC)"
recorded_value = 0.154

[[record]]
monomer_sequence = "AGGAACTCTTGGGTTCTAACCTGTTGCCT (site CGGAACTCTAG)"
recorded_value = 0.573


Batch lookup, recombinant barcode read abundance (log10) per entry.
1. TAGGCGGCTTGGGTTCTAACCTGTTGCGT (site TAGGCGGCTAC)
2. CAGAATCCTTGGGTTCTAACCTGTTGCGG (site CAGAATCCTCC)
3. CTAACCTCTTGGGTTCTAACCTGTTGCTC (site CTAACCTCTCA)
4. TTAGACCCTTGGGTTCTAACCTGTTGCAG (site AGGTCTACTTG)

### Response
[2.63, 1.73, 0.0593, 0.0942]
